B1: HDV Ribozyme (parent)
chain: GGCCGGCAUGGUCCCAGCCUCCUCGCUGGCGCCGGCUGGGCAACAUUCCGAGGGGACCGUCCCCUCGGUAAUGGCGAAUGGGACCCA

- Variants of: B1
- TEST_PROTOCOL: self-cleavage, relative activity (ratio to wild type); higher = more cleavage; co-transcriptional
Threshold check on self-cleavage: at or above 0.3 gives condition met, strictly below gives condition not met.

MUT	ASSIGNED_CATEGORY
G38U C44U	condition not met
G17C G54U	condition not met
G5A G39U	condition not met
C18U G34C	condition not met
G34C G54U	condition not met
G6U G31A	condition not met
G55U G80A	condition met
C62G A78C	condition not met
G25U U60C	condition not met
G6U A8C	condition met
C3A U69C	condition met
A45U G54A	condition met
C66G C85A	condition met
G6U C75U	condition not met
U37A G55U	condition not met
C26U U37G	condition met
C4U A70G	condition met
U46G A87C	condition met
U46C C48U	condition met
G25U G50C	condition not met
G17A U60G	condition met
C22A U65A	condition not met

Value source: the RNAGym collection of RNA variant scans (doi:10.7554/elife.80360)
